tested on: MDA-MB-231 breast; test: NCI-60 one-dose screen, 48 h (100 = growth as untreated, 0 = no growth, -100 = all killed); conditions: 10 µM unless noted
Compounds without any hit were thinned out: in the full panel of roughly 83,000, 20% have a hit.
Decision: growth beneath 30% gives 1 (yes); growth meeting or exceeding 30% gives 0 (no).

Oc1c(CN2CCCC2)cc(CSCc2ccccc2)c2cccnc12; 1 (yes)
Cc1nc2sc(C(=O)Nc3cccc(Br)c3C)c(N)c2cc1C(O)c1ccccc1 (stereo not given); 1 (yes)

Incoming: Confirm or reject: growth of `CN1CCN(CC(=O)Nc2ccc3ncnc(Nc4ccc(Oc5cccc(C(F)(F)F)c5)c(Cl)c4)c3c2)CC1` lies strictly below 30%
Outgoing: 1 (yes)

Incoming: Please check: growth for `O=S(=O)(NCCCNc1nccc(-c2c(-c3cccc(F)c3)nc3occn23)n1)c1ccc(F)cc1` , strictly under 30% or not?
Outgoing: 0 (no)

Incoming: Bench note: check whether COC(=O)N1CC(Oc2ccccn2)C2CC1c1ccccc1O2 (stereo not given) shows growth below 30%
Outgoing: 0 (no)

* * *

test system: BT-549 breast; assay: NCI-60 one-dose screen, 48 h (100 = growth as untreated, 0 = no growth, -100 = all killed); conditions: 10 µM unless noted
The panel holds about 83,000 compounds, 20% with a hit somewhere; the sample as a whole holds those more often.
Experimental Readout: growth (%)
Numeric only. Scale: %

See these solved cases before continuing.
CC(=O)/C(=C/c1ccc([N+](=O)[O-])cc1)C(=O)c1ccccc1; 89.8
Cc1ccc(CNc2ccc3nc(CCC(C)C)[nH]c3c2)cc1; 93.4
CC1(C)CC[C@]2(CO)CC[C@]3(C)[C@H](CC[C@@H]4[C@@]5(C)CCCNC(C)(C)[C@@H]5CC[C@]43C)[C@H]2[C@H]1O; 89.3
O=C(/C=C(O)/C=C/c1cccc2[nH]ccc12)/C=C/c1cccc2[nH]ccc12; 76.4

From here, focus on the item given below.
Incoming: Specify reported growth for the compound shown: `C=C1C(=O)O[C@H]2[C@H]1CC/C(COC(=O)c1ccc(C(=O)O)s1)=C\CC[C@@]1(C)O[C@@H]21`
Outgoing: 42.9

* * *

test system: UACC-62 melanoma; test: NCI-60 one-dose screen, 48 h (100 = growth as untreated, 0 = no growth, -100 = all killed); settings: 10 µM unless noted
This is part of a sample that, as a whole, favours compounds with a hit. Of some 83,000 tested, about 20% had one in any assay.
Grouping key: growth. Bins: bucket A (below 30%), bucket B (30% to below 70%), bucket C (70% or more)

Some entries whose results are on file:
Cc1c(Cl)cccc1C(=O)Nc1nc2c(s1)CN(C(=O)c1ccc(C(F)(F)F)cc1)CC2; bucket B
CSc1nn2c(-c3ccc4ccccc4c3)ccnc2c1C#N; bucket A
Cc1ccc(C(=O)c2ccc(CC(=O)N=Nc3c(O)[nH]c4ccc(Br)cc34)n2C)cc1; bucket C
O=C(CCCCCNC(=O)c1cc(=O)c(O)co1)Nc1ccccc1; bucket C
CCN1C(=O)N(CC)C2C1NN=c1s/c(=C3\C(=O)N(CCC(C)C)c4ccccc43)c(=O)n12 (centres undefined); bucket A
C=C1C(=O)O[C@H]2[C@H]1CC/C(COC(=O)CSCSCC(=O)OC/C1=C/CC[C@@]3(C)O[C@H]3[C@H]3OC(=O)C(=C)[C@@H]3CC1)=C\CC[C@@]1(C)O[C@@H]21; bucket A
COc1ccc(Cn2cc(C(=O)N=Nc3c(O)[nH]c4c(C)cccc34)nn2)cc1; bucket C
COc1ccc(C[n+]2c3ccccc3n3c4ccc(N)cc4ccc32)c(OC)c1OC; bucket B
O=C(Nc1ccc(Cl)cc1)Oc1c(Cl)c(Cl)c(Cl)c(Cl)c1Cl; bucket C
Cc1[nH]c(C2CC(c3ccc(C(F)(F)F)c(F)c3)=NN2c2ccccc2)c(C)c1C(=O)NCC(F)(F)F (centres undefined); bucket C

Incoming: Given `O=C(CI)NC(=O)NC(=O)NCc1ccccc1` , name the class its growth places it in.
Outgoing: bucket C

Incoming: Lab note: sort Nc1nc(N)c2c(n1)NC(c1cccc(Nc3ccnc4cc(C(F)(F)F)ccc34)c1)CC(c1ccccc1)=N2 (centres undefined) into the matching growth band.
Outgoing: bucket C
